- Tested on: PCSK9 gene
- assay-summary: PCSK9 gRNA/SpCas9 editing in primary cynomolgus hepatocytes (Tables 2, 22)
- Type: cell-based, cynomolgus monkey
- stated-conditions: 500 ng/RNA/mL; SpCas9 mRNA MS002 1:1 by weight
- Experimental: In set of experiments, PCSK9 gRNAs were co-transfected with an equivalent amount (1:1 ratio by weight) of in vitro transcribed commercially available SpCas9 mRNA MS002 purchased from TriLink Biotechnologies into primary human hepatocytes at 2500, 500, or 100 ng/RNA/mL and processed as described in detailed methods. Extracted genomic DNA was analyzed for gene editing at the target site with next-generation sequencing of PCR amplicons generated around the target sites. […]
In the oligonucleotide strings, read from the 5' end, every base follows the letter of its sugar. An asterisk marks phosphorothioate; unmarked linkages are phosphodiester. Other units and linkages are bracketed, terminal groups are in braces. A string of capitals states the bases alone. m = 2'-O-methyl; r = 2'-OH (RNA)
Lab note: anything with Cyno Primary Hepatocyte Editing % 500 below 3% is marked Y; values at 3% or higher are marked N.

Study these solved cases before continuing.
molecule	category
GA227: PCSK9 gRNA; protospacer GTCCCGGAAGTTGCCGGCAG (SEQ ID NO: 221) (nucleic acid, sugars from the 5' end m3 r94 m3, linkages s3 o93 s3 (s phosphorothioate, o phosphodiester), T or U not given here) guide: GUCCCGGAAGUUGCCGGCAGGUUUUAGAGCUAGAAAUAGCAAGUUAAAAUAAGGCUAGUCCGUUAUCAACUUGAAAAAGUGGCACCGAGUCGGUGCUUUU	N
GA192: PCSK9 gRNA; protospacer CCATGTCGACTACATCGAGG (SEQ ID NO: 186) (nucleic acid) guide: mC*mC*mA*rUrGrUrCrGrArCrUrArCrArUrCrGrArGrGrGrUrUrUrUrArGrArGrCrUrArGrArArArUrArGrCrArArGrUrUrArArArArUrArArGrGrCrUrArGrUrCrCrGrUrUrArUrCrArArCrUrUrGrArArArArArGrUrGrGrCrArCrCrGrArGrUrCrGrGrUrGrCrU*mU*mU*mU	Y
GA243: PCSK9 gRNA; protospacer GGCGAGGGCTGGGGTCGTGC (SEQ ID NO: 236) (nucleic acid, sugars from the 5' end m3 r94 m3, linkages s3 o93 s3 (s phosphorothioate, o phosphodiester), T or U not given here) guide: GGCGAGGGCUGGGGUCGUGCGUUUUAGAGCUAGAAAUAGCAAGUUAAAAUAAGGCUAGUCCGUUAUCAACUUGAAAAAGUGGCACCGAGUCGGUGCUUUU	Y
GA162: PCSK9 gRNA; protospacer GGACGGCGACTACGAGGAGC (SEQ ID NO: 156) (nucleic acid) guide: mG*mG*mA*rCrGrGrCrGrArCrUrArCrGrArGrGrArGrCrGrUrUrUrUrArGrArGrCrUrArGrArArArUrArGrCrArArGrUrUrArArArArUrArArGrGrCrUrArGrUrCrCrGrUrUrArUrCrArArCrUrUrGrArArArArArGrUrGrGrCrArCrCrGrArGrUrCrGrGrUrGrCrU*mU*mU*mU	N
GA222: PCSK9 gRNA; protospacer TGGCAGGGGTGGTCAGCGGC (SEQ ID NO: 216) (nucleic acid, sugars from the 5' end m3 r94 m3, linkages s3 o93 s3 (s phosphorothioate, o phosphodiester), T or U not given here) guide: UGGCAGGGGUGGUCAGCGGCGUUUUAGAGCUAGAAAUAGCAAGUUAAAAUAAGGCUAGUCCGUUAUCAACUUGAAAAAGUGGCACCGAGUCGGUGCUUUU	N

Continue with the molecule presented below.
Check if Cyno Primary Hepatocyte Editing % 500 falls below 3% for GA188: PCSK9 gRNA; protospacer TATTCATCCGCCCGGTACCG (SEQ ID NO: 182) (nucleic acid) guide: mU*mA*mU*rUrCrArUrCrCrGrCrCrCrGrGrUrArCrCrGrGrUrUrUrUrArGrArGrCrUrArGrArArArUrArGrCrArArGrUrUrArArArArUrArArGrGrCrUrArGrUrCrCrGrUrUrArUrCrArArCrUrUrGrArArArArArGrUrGrGrCrArCrCrGrArGrUrCrGrGrUrGrCrU*mU*mU*mU . Y
